# system-name: Pdr5 V1372A, I685A double mutant (Saccharomyces cerevisiae, UniProt P33302, I685A/V1372A)
# Sequence (P33302 whole entry I685A/V1372A): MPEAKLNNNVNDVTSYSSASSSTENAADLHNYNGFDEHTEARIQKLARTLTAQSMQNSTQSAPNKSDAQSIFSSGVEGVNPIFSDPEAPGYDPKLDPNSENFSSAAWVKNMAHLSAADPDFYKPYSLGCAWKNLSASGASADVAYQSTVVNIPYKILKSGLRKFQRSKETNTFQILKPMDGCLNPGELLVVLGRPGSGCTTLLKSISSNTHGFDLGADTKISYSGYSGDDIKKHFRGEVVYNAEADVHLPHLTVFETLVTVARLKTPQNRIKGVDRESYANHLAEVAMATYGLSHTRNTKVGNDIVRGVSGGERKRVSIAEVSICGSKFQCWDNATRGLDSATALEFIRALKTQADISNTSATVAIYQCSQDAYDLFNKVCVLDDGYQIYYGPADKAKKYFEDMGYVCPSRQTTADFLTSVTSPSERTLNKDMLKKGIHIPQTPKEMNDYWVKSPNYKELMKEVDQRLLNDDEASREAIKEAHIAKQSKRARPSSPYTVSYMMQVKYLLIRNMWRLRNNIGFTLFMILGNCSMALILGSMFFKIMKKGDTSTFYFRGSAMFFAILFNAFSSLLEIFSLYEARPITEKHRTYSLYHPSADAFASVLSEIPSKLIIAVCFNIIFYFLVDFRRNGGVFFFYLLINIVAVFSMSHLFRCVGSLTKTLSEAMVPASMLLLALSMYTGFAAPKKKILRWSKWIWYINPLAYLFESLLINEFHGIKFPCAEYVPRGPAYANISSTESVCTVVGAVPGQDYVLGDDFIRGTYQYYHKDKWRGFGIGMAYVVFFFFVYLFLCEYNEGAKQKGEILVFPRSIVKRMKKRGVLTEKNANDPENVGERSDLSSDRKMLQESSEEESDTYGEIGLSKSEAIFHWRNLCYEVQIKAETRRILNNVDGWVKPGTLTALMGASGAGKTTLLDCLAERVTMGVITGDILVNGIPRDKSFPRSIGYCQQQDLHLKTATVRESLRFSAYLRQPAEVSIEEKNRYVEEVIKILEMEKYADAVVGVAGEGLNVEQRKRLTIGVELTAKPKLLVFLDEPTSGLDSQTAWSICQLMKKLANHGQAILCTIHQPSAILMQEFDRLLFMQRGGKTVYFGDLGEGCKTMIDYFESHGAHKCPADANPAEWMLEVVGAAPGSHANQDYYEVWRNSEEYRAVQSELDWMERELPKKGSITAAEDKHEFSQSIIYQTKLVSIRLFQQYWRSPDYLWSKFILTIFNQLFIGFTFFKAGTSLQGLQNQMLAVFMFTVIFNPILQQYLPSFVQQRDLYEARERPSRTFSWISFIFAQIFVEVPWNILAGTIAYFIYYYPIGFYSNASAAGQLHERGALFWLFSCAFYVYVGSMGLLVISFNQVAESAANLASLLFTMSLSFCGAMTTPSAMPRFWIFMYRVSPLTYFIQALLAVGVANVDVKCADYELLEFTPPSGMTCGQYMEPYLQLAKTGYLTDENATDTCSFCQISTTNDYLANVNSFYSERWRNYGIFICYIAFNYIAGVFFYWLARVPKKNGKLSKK
# measurement-notes: biochemical
quantity-name: pIC50
Please keep in mind that pIC50 is minus log10 of the molar concentration; only the number is needed.

Look up pIC50 for this compound: c1ccc(-c2ccc(C(c3ccccc3)n3ccnc3)cc2)cc1 (stereo not shown)
4.89
